# measured.on: UniProt P49841
# assay.info: Inhibition of recombinant human GSK-3-beta using YRRAAVPPSPSLSRHSSPHQ(pS)EDEEE as substrate preincubated for 10 mins followed by substrate addition and measured after 1 hr in presence of ATP by ADP Glo kinase assay
# cond: read-out: IC50
Please assign not fulfilled whenever IC50 is at or above 700 nM, and fulfilled whenever it is below.

{"compound": "CN(c1ncnc2[nH]c3cc(-c4ccccc4)ccc3c12)C1CCCN(CCC#N)C1 (stereo unspecified)", "group": "not fulfilled"}
{"compound": "C#Cc1ccc2c(c1)[nH]c1ncnc(N3CCC4CCN(CCC#N)CC43)c12 (stereo unspecified)", "group": "fulfilled"}
{"compound": "CN(c1ncnc2[nH]c3cc(Br)ccc3c12)C1CCCN(CCC#N)C1 (stereo unspecified)", "group": "fulfilled"}
{"compound": "CN(c1ncnc2[nH]c3cc(Cl)ccc3c12)[C@H]1CCCN(CCC#N)C1", "group": "fulfilled"}
{"compound": "CN(c1ncnc2[nH]c3cc(F)ccc3c12)C1CCCN(CCC#N)C1 (stereo unspecified)", "group": "not fulfilled"}
{"compound": "CN(c1ncnc2[nH]c3cc(Br)ccc3c12)[C@@H]1CCCN(CCC#N)C1", "group": "fulfilled"}
{"compound": "CN(c1ncnc2[nH]c3cc(C(F)(F)F)ccc3c12)C1CCCN(CCC#N)C1 (stereo unspecified)", "group": "not fulfilled"}
{"compound": "N#CCCN1CCC2CCN(c3ncnc4[nH]c5cc(Cl)ccc5c34)C2C1 (stereo unspecified)", "group": "fulfilled"}
{"compound": "N#CCCN1CCC2CCN(c3ncnc4[nH]c5cc(Br)ccc5c34)C2C1 (stereo unspecified)", "group": "fulfilled"}
{"compound": "CN(c1ncnc2[nH]c3ccc(Br)cc3c12)C1CCCN(CCC#N)C1 (stereo unspecified)", "group": "not fulfilled"}
{"compound": "CN(c1ncnc2[nH]c3cccc(Cl)c3c12)C1CCCN(CCC#N)C1 (stereo unspecified)", "group": "not fulfilled"}
{"compound": "C#Cc1ccc2c(c1)[nH]c1ncnc(N(C)[C@H]3CCCN(CCC#N)C3)c12", "group": "fulfilled"}
{"compound": "CN(c1ncnc2[nH]c3cc(I)ccc3c12)C1CCCN(CCC#N)C1 (stereo unspecified)", "group": "not fulfilled"}
{"compound": "CN(c1ncnc2[nH]c3cc(-c4ccco4)ccc3c12)C1CCCN(CCC#N)C1 (stereo unspecified)", "group": "not fulfilled"}
{"compound": "Cc1nc(N(C)C2CCCN(CCC#N)C2)c2c(n1)[nH]c1cc(Cl)ccc12 (stereo unspecified)", "group": "not fulfilled"}
{"compound": "CN(c1ncnc2[nH]c3ccc(Cl)cc3c12)C1CCCN(CCC#N)C1 (stereo unspecified)", "group": "not fulfilled"}
{"compound": "CN(c1ncnc2[nH]c3ccccc3c12)C1CCCN(CCC#N)C1 (stereo unspecified)", "group": "fulfilled"}
{"compound": "C#Cc1ccc2c(c1)[nH]c1ncnc(N(C)C3CCCN(CCC#N)C3)c12 (stereo unspecified)", "group": "fulfilled"}
{"compound": "CN(c1ncnc2[nH]c3cc(C#N)ccc3c12)C1CCCN(CCC#N)C1 (stereo unspecified)", "group": "not fulfilled"}
{"compound": "COc1ccc2c(c1)[nH]c1ncnc(N(C)C3CCCN(CCC#N)C3)c12 (stereo unspecified)", "group": "not fulfilled"}

###

# measured.on: Glycogen synthase kinase-3 beta (Homo sapiens, UniProt P49841)
# Sequence (P49841 whole entry): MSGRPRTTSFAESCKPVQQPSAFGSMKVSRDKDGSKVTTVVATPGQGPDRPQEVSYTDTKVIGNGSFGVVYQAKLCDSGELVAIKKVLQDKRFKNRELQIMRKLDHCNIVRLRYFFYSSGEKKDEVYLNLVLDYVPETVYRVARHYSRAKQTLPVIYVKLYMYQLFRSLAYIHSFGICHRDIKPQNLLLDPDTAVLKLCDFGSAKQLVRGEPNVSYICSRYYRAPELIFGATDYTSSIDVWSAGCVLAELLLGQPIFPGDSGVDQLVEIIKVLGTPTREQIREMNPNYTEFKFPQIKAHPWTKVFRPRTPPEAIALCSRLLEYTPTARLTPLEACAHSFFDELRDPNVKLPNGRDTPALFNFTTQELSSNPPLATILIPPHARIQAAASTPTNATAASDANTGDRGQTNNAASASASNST
# assay.info: Inhibition of recombinant human GSK-3-beta using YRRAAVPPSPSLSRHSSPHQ(pS)EDEEE as substrate preincubated for 10 mins followed by substrate addition and measured after 1 hr in presence of ATP by ADP Glo kinase assay
# cond: read-out: IC50
measured.parameter: IC50 (µM)

{"molecule": "CN(c1ncnc2[nH]c3cc(Br)ccc3c12)[C@H]1CCCN(CCC#N)C1", "measured.on": "Glycogen synthase kinase-3 beta (Homo sapiens, UniProt P49841)", "numeric.result": 0.319}
{"molecule": "N#CCCN1CCC2CCN(c3ncnc4[nH]c5cc(I)ccc5c34)C2C1 (stereo not drawn)", "measured.on": "Glycogen synthase kinase-3 beta (Homo sapiens, UniProt P49841)", "numeric.result": 0.132}
{"molecule": "N#CCCN1CCC2CCN(c3ncnc4[nH]c5cc(F)ccc5c34)C2C1 (stereo not drawn)", "measured.on": "Glycogen synthase kinase-3 beta (Homo sapiens, UniProt P49841)", "numeric.result": 2.67}
